Give measured IC50 for each item. Keep answers brief.
- measured.on: p110β/p85α (Homo sapiens, UniProt P42338)
- Sequence (P42338 whole entry, looked up): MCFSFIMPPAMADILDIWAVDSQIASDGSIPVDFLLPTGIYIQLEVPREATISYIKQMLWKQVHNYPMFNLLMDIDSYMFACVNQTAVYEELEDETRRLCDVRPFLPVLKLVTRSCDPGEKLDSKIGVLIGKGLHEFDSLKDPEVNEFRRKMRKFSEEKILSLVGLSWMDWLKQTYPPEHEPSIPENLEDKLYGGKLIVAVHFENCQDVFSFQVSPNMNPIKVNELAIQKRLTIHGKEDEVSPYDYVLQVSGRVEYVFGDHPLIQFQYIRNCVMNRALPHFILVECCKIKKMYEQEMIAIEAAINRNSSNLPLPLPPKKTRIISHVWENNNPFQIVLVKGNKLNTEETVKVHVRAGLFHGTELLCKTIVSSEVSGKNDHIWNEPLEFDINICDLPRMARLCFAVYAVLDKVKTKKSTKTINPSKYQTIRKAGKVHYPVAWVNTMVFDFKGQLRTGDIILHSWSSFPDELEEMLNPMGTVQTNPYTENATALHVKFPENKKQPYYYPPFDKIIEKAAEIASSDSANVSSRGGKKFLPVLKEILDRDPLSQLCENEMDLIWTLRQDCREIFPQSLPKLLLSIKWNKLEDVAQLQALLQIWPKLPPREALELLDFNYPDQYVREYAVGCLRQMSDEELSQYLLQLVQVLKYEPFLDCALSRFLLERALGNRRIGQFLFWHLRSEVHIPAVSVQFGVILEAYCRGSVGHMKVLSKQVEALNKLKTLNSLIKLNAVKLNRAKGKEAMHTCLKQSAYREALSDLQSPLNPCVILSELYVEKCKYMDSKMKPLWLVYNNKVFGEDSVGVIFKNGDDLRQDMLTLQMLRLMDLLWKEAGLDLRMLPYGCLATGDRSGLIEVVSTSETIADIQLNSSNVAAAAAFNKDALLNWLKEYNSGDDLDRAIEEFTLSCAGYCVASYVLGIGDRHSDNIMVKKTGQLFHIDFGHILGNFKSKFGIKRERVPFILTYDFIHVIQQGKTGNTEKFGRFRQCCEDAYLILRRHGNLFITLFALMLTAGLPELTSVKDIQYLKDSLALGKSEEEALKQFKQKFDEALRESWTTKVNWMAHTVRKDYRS
- run.description: PI3K β inhibition assay (TLC lipid kinase or HTRF)
- Type: biochemical
- applied.conditions: read-out: PI3K β IC50

Item Cc1cccc2cc(Cn3nc(-c4cccc(O)c4)c4c(N)ncnc43)c(N3CCCC3)nc12 [Compound 10] has what recorded IC50?
> 1000 nM

Now this one: CN1CCN(c2nc3ccccc3cc2Cn2nc(-c3ccc4cc(N)sc4c3)c3c(N)ccnc32)CC1 [Compound 80]
< 100 nM

Lookup Nc1ncnc2c1c(-c1cc(O)cc(F)c1)nn2Cc1cc2ccccc2nc1-c1ccccc1 [Compound 57]
100 to 1000 nM

Ok, now CN1CCN(c2nc3ccccc3nc2Cn2nc(-c3ccc4nc(N)sc4c3)c3c(N)ncnc32)CC1 [Compound 199]
< 100 nM

Now try Cc1cccc2cc(Cn3nc(-c4cc(O)cc(F)c4)c4c(N)ncnc43)c(N3CCOCC3)nc12 [Compound 65] .
100 to 1000 nM

What about this molecule? CC(C)N(C)c1nc2ccccc2cc1Cn1nc(-c2ccc3nc(N)[nH]c3c2)c2c(N)ncnc21 [Compound 184]
> 1000 nM

Input Nc1nc2ccc(-c3nn(Cc4cc5ccccc5nc4N4CCCC4)c4ncnc(N)c34)cc2s1 [Compound 79]
> 1000 nM

Entry to check: Nc1nc2ccc(-c3nn(Cc4cc5ccccc5nc4-c4ccccc4)c4ncnc(N)c34)cc2s1 [Compound 94]
> 1000 nM

Now this one: CC(=O)Nc1nc2ccc(-c3nn(Cc4cc5ccccc5nc4N4CCCC4)c4ncnc(N)c34)cc2s1 [Compound 195]
> 1000 nM

Another molecule to look at: Nc1ccc2cc(-c3nn(Cc4cc5ccccc5nc4-c4ccccc4)c4ncnc(N)c34)ccc2n1 [Compound 144]
> 1000 nM

Further, for Nc1ncnc2c1c(-c1cc(O)cc(F)c1)nn2Cc1cc2ccccc2nc1-c1ccccc1 [Compound 149] ?
> 1000 nM

Also check Cc1ccccc1-c1nc2ccccc2cc1Cn1nc(-c2ccc3cc(N)sc3c2)c2c(N)ncnc21 [Compound 86]
> 1000 nM

Let us now turn to Nc1ncnc2c1c(-c1cc(O)cc(F)c1)nn2Cc1cc2ccccc2nc1CN1CCCC1 [Compound 174]
< 100 nM

Next: CC(Nc1ncnc2[nH]cnc12)c1cc2ccccc2nc1N1CCN(C)CC1 (stereo not shown) [Compound 82]
> 1000 nM

Continue with CC1CCCN1c1nc2ccccc2cc1Cn1nc(-c2ccc3nc(N)sc3c2)c2c(N)ncnc21 (stereo not shown) [Compound 187]
100 to 1000 nM

Record: CN1CCN(c2nc3ccccc3cc2Cn2nc(-c3cccc(O)c3)c3c(N)ncnc32)CC1 [Compound 43]
100 to 1000 nM
